protocol description: Probe fluorescence ratio response to arachidonic acid relative to ADIFAB2
Assay type: binding
condition notes: arachidonic acid; response relative to ADIFAB2
Threshold 0.5: DR/DR AA strictly smaller gives class 1, otherwise class 0.

INSERT INTO results (molecule, category) VALUES
  ('14L 18T 31E 73G 117G 72A (protein, listed as Rattus norvegicus, PEPTIDE (1)...(131) wild-type rat intestinal fatty acid binding protein) AFDGTWKVDRNENLEKFTEKMGINVVKRKLEAHDNLKLTITQEGNKFTVKESSNFRNIDVVFELGVDFAYSAGDGTELTGTWTMEGNKLVGKFKRVDNGKELIAVREISGNELIQTGTYEGVEAKRIFKKE', 'class 0'),
  ('72E 73V 74A (protein, listed as Rattus norvegicus, PEPTIDE (1)...(131) wild-type rat intestinal fatty acid binding protein) AFDGTWKVDRNENYEKFMEKMGINVVKRKLGAHDNLKLTITQEGNKFTVKESSNFRNIDVVFELGVDFAYSEVAGTELTGTWTMEGNKLVGKFKRVDNGKELIAVREISGNELIQTYTYEGVEAKRIFKKE', 'class 1'),
  ('14I 72A (protein, listed as Rattus norvegicus, PEPTIDE (1)...(131) wild-type rat intestinal fatty acid binding protein) AFDGTWKVDRNENIEKFMEKMGINVVKRKLGAHDNLKLTITQEGNKFTVKESSNFRNIDVVFELGVDFAYSAADGTELTGTWTMEGNKLVGKFKRVDNGKELIAVREISGNELIQTYTYEGVEAKRIFKKE', 'class 0'),
  ('23K1, 72A (protein, listed as Rattus norvegicus, PEPTIDE (1)...(131) wild-type rat intestinal fatty acid binding protein) AFDGTWKVDRNENYEKFMEKMGKNVVKRKLGAHDNLKLTITQEGNKFTVKESSNFRNIDVVFELGVDFAYSAADGTELTGTWTMEGNKLVGKFKRVDNGKELIAVREISGNELIQTYTYEGVEAKRIFKKE', 'class 1'),
  ('31R, 72A (protein, listed as Rattus norvegicus, PEPTIDE (1)...(131) wild-type rat intestinal fatty acid binding protein) AFDGTWKVDRNENYEKFMEKMGINVVKRKLRAHDNLKLTITQEGNKFTVKESSNFRNIDVVFELGVDFAYSAADGTELTGTWTMEGNKLVGKFKRVDNGKELIAVREISGNELIQTYTYEGVEAKRIFKKE', 'class 1');
